# Experimental Target: C-C chemokine receptor type 5 (Homo sapiens, UniProt P51681)
# Sequence (P51681 whole entry): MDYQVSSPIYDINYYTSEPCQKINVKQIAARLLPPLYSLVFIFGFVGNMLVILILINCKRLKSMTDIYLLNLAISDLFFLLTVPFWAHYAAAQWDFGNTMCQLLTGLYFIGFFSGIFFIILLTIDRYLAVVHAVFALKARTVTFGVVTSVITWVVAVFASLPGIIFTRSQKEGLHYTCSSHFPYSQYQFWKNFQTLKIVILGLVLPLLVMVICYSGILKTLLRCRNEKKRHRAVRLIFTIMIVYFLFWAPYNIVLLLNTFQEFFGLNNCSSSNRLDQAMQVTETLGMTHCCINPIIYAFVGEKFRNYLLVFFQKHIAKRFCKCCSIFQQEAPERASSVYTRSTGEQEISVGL
Quick reference for IC50 among some compounds
State the answer as a number, implicitly in nM.

Some entries whose results are on file:
{"columns": ["Compound", "Experimental Target", "IC50 [nM]"],
 "data": [
  ["Cc1ncnc(C)c1C(=O)N1C[C@H]2CN(CCC(c3ccccc3)C3CCN(C(=O)C(C)C)CC3)C[C@H]2C1 (some centres not stated)", "C-C chemokine receptor type 5 (Homo sapiens, UniProt P51681)", 72],
  ["Cc1cc(=O)oc(C)c1C(=O)N1C[C@H]2CN(CCC(c3ccccc3)C3CCN(S(C)(=O)=O)CC3)C[C@H]2C1 (some centres not stated)", "C-C chemokine receptor type 5 (Homo sapiens, UniProt P51681)", 27],
  ["Cc1ncnc(C)c1C(=O)N1C[C@H]2CN(CCC(c3cccc(F)c3)C3CN(S(=O)(=O)C4CC4)C3)C[C@H]2C1 (some centres not stated)", "C-C chemokine receptor type 5 (Homo sapiens, UniProt P51681)", 39],
  ["Cc1ncnc(C)c1C(=O)N1C[C@H]2CN(CCC(c3cccc(F)c3)C3CCN(S(C)(=O)=O)CC3)C[C@H]2C1 (stereo in doubt; 43)", "C-C chemokine receptor type 5 (Homo sapiens, UniProt P51681)", 32],
  ["CCC(=O)N1CCC(C(CCN2C[C@@H]3CN(C(=O)c4c(C)ncnc4C)C[C@@H]3C2)c2ccccc2)CC1 (some centres not stated)", "C-C chemokine receptor type 5 (Homo sapiens, UniProt P51681)", 32]
]}

Then this compound:
Q: Can you look up IC50 on C-C chemokine receptor type 5 (Homo sapiens, UniProt P51681) for Cc1ncnc(C)c1C(=O)N1C[C@H]2CN(CCC(c3ccccc3)C3CCN(C(=O)CC(C)C)CC3)C[C@H]2C1 (some centres not stated) ?
Result: 68
